Origin of measurements: patent US12171755B2

# assayedTarget: PAPD5 (Homo sapiens)
# Construct: made in house
# Sequence (Q8NDF8 68-698 isoform Q8NDF8-5): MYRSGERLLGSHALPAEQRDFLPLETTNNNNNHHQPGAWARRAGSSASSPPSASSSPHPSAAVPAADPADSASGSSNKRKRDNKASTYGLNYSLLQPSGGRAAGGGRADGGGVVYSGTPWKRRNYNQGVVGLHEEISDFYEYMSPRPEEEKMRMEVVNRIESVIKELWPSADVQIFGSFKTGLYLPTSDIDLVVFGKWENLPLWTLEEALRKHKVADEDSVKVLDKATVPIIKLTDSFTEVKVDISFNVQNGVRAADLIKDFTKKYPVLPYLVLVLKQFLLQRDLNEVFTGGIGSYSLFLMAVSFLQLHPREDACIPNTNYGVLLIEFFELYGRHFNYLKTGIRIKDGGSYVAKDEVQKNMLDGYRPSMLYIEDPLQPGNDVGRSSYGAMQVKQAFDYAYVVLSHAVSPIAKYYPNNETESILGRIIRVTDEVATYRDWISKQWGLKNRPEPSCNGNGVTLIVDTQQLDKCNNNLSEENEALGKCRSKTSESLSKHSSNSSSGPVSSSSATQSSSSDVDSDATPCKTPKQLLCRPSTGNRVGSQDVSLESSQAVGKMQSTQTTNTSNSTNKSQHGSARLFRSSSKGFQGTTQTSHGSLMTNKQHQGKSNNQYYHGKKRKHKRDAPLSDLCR
# protocolDescription: High-throughput luminescence (KinaseGlo) RNA polyadenylation assay, ATP utilization by recombinant PAPD5
# Type: biochemical
# reportedConditions: Table 4 (entries of Table 5); 33 μM compound; ratio of luminescence with inhibitor to DMSO
recordedEndpoint: Fold-change determined at compound concentration 33 μM

- compound: "CCCc1nnc(NC(=O)c2cc(=O)c3cc(C)c(C)cc3o2)s1"
  readoutValue: 1.397
- compound: "CC(C)c1nnc(NC(=O)c2cc(=O)c3ccc(Br)cc3o2)s1"
  readoutValue: 1.118
- compound: "Cc1nnc2ccc(-n3ncc4c3NC(=O)CC4c3ccc(O)cc3)nn12 (stereo not drawn)"
  readoutValue: 1.05
- compound: "O=C(Nc1c(-c2ccccc2)nc2ccccn12)c1ccc(Br)cc1"
  readoutValue: 1.225
- compound: "COc1ccc(C2CC(=O)N3CN(C4CCCCC4)CSC3=C2C#N)cc1 (stereo not drawn)"
  readoutValue: 1.323
- compound: "NC(=O)CN1c2ccc(F)cc2-c2ccccc2S1(=O)=O"
  readoutValue: 1.099
